Each item that follows carries a reported % live, Fab-saporin, 250pM.
Target: rat BMPR1B overexpressed on the surface of HEK293T cells (N-terminal Asp-Lys epitope tag, … (rat, UniProt A0A8I6A0G0 62-550))
Sequence (chain, as listed by the source): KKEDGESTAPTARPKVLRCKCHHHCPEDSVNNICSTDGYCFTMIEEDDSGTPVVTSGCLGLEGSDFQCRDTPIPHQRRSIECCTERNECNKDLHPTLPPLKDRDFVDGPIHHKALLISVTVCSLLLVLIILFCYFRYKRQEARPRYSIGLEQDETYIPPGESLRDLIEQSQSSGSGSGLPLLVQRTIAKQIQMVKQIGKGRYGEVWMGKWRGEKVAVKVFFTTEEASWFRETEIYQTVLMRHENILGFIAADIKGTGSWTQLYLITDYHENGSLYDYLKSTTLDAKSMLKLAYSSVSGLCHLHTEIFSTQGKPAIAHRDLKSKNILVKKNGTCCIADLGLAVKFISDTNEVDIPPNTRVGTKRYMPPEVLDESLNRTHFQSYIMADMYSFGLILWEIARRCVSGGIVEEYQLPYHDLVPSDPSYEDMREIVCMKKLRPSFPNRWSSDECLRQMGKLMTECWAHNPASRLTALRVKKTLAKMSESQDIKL
Test: cell-based or functional assay
The reply should be a number in %, with the unit left off.

BINDER	REPORTED VALUE
SC91.160 (antibody, V domains shown) VH: QIQLVQSGPELKKPGETVKISCKASGYTFTTYGMNWVKQAPGKGLKWMGWINTYSGVPSSADDFKGRFAFSLETSASTAYLLINNLKNEDTATYFCARSELRNWYFDVWGTGTTVTVSS VL: SFVMTQTPKFLLVSAGDRVTITCKASQNMGHDVAWYQQKPGQSPKLLIYSASNRYTGVPDRFTGSGYGTDFTFTISTVQAEDLAVYFCQQDYSSPFTFGSGTKLEMK	77.9

Turning now to a further binder:
Req: Report % live, Fab-saporin, 250pM, nothing else, for this binder: SC91.187 (antibody, V domains shown) VH: QVQLQQPGPEFVKPGASVKLSCKASGYTFTSYWVQWVKQRPGQGLEWIGEIDPSDNYTLYNQNFKGKATLTVDTSSSTAYMQLSSLTSEDSAVYYCARFGFYVDYWGQGTTLTVSS VL: DVVMTQTPLSLPVSLGEQASISCRSSQSLVHSTGNTYLHWYLQKPGQSPKLLIYKVSNRFSGVPDRFSGSGSGTDFTLKISRVEAEDLGVYFCSQSTHVPFTFGSGTKLEIK
Resp: 36.7
